Molecular target: human NaV 1.8 (Homo sapiens, UniProt Q9Y5Y9)
Sequence (Q9Y5Y9 whole entry, looked up): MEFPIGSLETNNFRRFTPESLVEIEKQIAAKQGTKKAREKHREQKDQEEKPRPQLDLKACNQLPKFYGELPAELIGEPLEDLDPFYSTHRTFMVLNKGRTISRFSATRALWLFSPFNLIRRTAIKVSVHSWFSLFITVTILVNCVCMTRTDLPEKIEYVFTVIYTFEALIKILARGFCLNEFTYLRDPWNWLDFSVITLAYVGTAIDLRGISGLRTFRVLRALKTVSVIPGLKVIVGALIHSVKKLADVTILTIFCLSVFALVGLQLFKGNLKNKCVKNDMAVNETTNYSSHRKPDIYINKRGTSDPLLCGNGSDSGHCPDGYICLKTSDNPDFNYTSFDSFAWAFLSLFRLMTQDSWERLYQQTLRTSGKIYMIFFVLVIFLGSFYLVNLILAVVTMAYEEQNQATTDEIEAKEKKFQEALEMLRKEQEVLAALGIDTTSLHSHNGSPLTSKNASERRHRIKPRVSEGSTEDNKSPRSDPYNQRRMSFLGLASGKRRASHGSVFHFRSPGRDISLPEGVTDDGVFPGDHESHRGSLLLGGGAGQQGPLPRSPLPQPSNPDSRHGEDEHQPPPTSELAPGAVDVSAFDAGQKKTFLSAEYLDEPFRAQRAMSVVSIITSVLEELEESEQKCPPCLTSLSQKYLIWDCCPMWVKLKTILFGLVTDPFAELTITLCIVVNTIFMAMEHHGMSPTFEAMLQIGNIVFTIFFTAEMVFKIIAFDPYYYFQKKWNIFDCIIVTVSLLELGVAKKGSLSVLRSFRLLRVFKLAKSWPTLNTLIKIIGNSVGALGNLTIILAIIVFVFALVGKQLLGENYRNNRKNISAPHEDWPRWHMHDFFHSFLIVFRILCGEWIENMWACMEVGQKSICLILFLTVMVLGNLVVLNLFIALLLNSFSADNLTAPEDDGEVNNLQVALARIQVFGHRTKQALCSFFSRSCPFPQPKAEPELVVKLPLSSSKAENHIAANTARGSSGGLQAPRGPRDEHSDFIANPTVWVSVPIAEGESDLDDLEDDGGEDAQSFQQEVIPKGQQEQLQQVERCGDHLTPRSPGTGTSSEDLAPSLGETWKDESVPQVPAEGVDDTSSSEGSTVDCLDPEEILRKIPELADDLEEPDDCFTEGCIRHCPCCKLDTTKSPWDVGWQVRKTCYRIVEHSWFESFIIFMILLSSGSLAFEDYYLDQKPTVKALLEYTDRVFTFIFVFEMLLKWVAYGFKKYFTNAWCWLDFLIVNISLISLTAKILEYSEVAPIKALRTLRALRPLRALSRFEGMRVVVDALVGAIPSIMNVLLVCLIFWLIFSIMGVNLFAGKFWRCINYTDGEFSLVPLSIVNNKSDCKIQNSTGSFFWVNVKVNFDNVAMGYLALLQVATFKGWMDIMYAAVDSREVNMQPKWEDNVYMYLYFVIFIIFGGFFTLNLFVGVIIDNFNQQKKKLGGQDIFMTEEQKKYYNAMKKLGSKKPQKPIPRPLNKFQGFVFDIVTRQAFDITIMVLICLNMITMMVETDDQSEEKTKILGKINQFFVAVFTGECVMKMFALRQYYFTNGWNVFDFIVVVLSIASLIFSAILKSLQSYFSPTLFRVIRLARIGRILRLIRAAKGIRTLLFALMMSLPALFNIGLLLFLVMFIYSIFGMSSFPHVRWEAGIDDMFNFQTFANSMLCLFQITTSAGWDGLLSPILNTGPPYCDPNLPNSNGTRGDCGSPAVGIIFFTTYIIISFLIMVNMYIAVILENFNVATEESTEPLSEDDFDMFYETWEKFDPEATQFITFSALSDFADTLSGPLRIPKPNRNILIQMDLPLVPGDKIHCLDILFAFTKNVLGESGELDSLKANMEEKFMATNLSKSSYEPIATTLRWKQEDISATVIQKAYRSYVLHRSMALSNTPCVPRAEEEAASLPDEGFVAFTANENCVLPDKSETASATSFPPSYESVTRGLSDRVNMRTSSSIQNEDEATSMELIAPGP
Experiment: E-VIPR assay for detecting and measuring NaV inhibition properties
Format: cell-based
Settings: E-VIPR assay conducted in the presence of human serum; HEK cells expressing truncated human NaV 1.8; read-out: IC50
property: pIC50
# pIC50 = -log10(concentration in molar units)

Solved entries:
COc1cc(OC(F)(F)F)ccc1Oc1cc(C(F)(F)F)c(C2CC2)nc1C(=O)Nc1ccnc(C(N)=O)c1 : 6.85
COc1c(Oc2ccc(C(F)(F)F)c(OC)c2C(=O)Nc2ccnc(C(N)=O)c2)ccc(F)c1F : 6.82
COc1c(Oc2ccc(C(F)(F)F)c(C)c2C(=O)Nc2cc(C(N)=O)ncc2C)ccc(OC(F)(F)F)c1F : 8.10

Query block: Suppose we examine the compound `COc1c(Oc2ccc(C(F)(F)F)c(C)c2C(=O)Nc2cnc(C(N)=O)nc2)ccc(OC(F)(F)F)c1F` ; what pIC50 value has been reported?
Result block: 8.19

Query block: Suppose we examine the compound `COc1cc(OC(F)(F)F)ccc1Oc1cc(C(F)(F)F)c(OC)nc1C(=O)Nc1ccnc(C(N)=O)c1` ; what pIC50 value has been reported?
Result block: 6.77

Query block: Suppose we examine the compound `[2H]C([2H])([2H])Oc1cc(OC(F)(F)F)ccc1Oc1cc(-c2cccc(C#N)c2)cc(F)c1C(=O)Nc1ccnc(C(N)=O)c1` ; what pIC50 value has been reported?
Result block: 6.33

====

Target: human NaV 1.8 (Homo sapiens)
Experiment: E-VIPR assay for detecting and measuring NaV inhibition properties
Format: cell-based
Conditions: E-VIPR assay conducted in the presence of human serum; HEK cells expressing truncated human NaV 1.8; read-out: IC50
Entries annotated with measured pIC50
# pIC50 = -log10(concentration in molar units)

Solved entries:
COc1cc(OC(F)(F)F)ccc1Oc1cc(C2CC2)c(C2CC2)nc1C(=O)Nc1ccc(C(N)=O)nc1 [Compound 205] : 5.96
Cc1cc(Cl)cc(Cl)c1Oc1ccc(C(F)(F)F)c(C)c1C(=O)Nc1ccnc(C(N)=O)c1 [Compound 142] : 5.77
[2H]C([2H])([2H])Oc1cc(OC(F)(F)F)ccc1Oc1cc(C2=CCCC2)cc(F)c1C(=O)Nc1ccnc(C(N)=O)c1 [Compound 1010] : 7.89
Cc1c(C(F)(F)F)ccc(Oc2ccc(F)cc2Cl)c1C(=O)Nc1ccc(C(N)=O)nc1 [Compound 190] : 5.82
COc1cc(Oc2ccc(F)cc2Cl)c(C(=O)Nc2ccnc(C(N)=O)c2)c(F)c1C(F)(F)F [Compound 365] : 7.30

Would you kindly look at the next entry?
Query block: Suppose we examine the compound Cc1c(C(F)(F)F)ccc(Oc2ccc(OC(F)(F)F)c(Cl)c2)c1C(=O)Nc1ccnc(C(N)=O)c1 [Compound 138] ; what pIC50 value has been reported?
Result block: 7.70

====

Target: human NaV 1.8 (Homo sapiens, UniProt Q9Y5Y9)
Assay: E-VIPR assay for detecting and measuring NaV inhibition properties
Type: cell-based
Conditions: E-VIPR assay conducted in the presence of human serum; HEK cells expressing truncated human NaV 1.8; read-out: IC50
property: pIC50
# pIC50 = -log10(concentration in molar units)

COc1ccc(Cl)cc1Oc1ccc(C(F)(F)F)c(F)c1C(=O)Nc1ccnc(C(N)=O)c1 : 6.77
NC(=O)c1cc(NC(=O)c2c(Oc3ccc(F)cc3Cl)ccc(C(F)(F)F)c2F)ccn1 : 7.32
COc1cc(OC(F)(F)F)ccc1Oc1cc(C(F)(F)F)cc(C)c1C(=O)Nc1cc(C(N)=O)ncc1C : 6.96

Query block: Suppose we examine the molecule `CC(C)Oc1ccc(Oc2ccc(C(F)(F)F)c(F)c2C(=O)Nc2ccnc(C(N)=O)c2)cc1Cl` ; what pIC50 value has been reported?
Result block: 7.77

Query block: Suppose we examine the molecule `COc1cc(OC(F)(F)F)ccc1Oc1cc(C(F)(F)F)cc(C)c1C(=O)Nc1ccnc(C(N)=O)c1` ; what pIC50 value has been reported?
Result block: 7.62

Data provenance is patent US12441703B2.
